normalized growth values by entry
# experimental protocol: chemical genetic growth profiling, strain panel (AID 1159580);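 note: tested at 20 µM; growth read once vehicle control cultures reached saturation at 30 °C; 1 = growth at the plate median or of vehicle wells; lower values mean less growth of the strain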
# experimental setup: S. cerevisiae deletion strains, growth OD, locus YLR268W, strain sec22, stronger effect = lower value
Out of some 5,500 compounds screened, about 2,000 (36%) were called active. About 18% were inconclusive and are not listed. The list shows a part of the results.

[
  {
    "compound": "OC1=Cc2c(O)cc(O)cc2OC1(O)c1ccc(O)c(O)c1 (stereo not drawn)",
    "normalized growth": 1.02
  },
  {
    "compound": "Nc1cc(-c2ccncc2)c[nH]c1=O",
    "normalized growth": 0.908
  },
  {
    "compound": "N#C/C(=C\\c1cccc(O)c1)C(=O)O",
    "normalized growth": 0.987
  }
]

The reported numbers originate from PubChem BioAssay AID1159580.
